Test system: 435261-313-R-J1-PDC complex spheroid viability
Assay: Anticancer human tumor 435261-313-R-J1-PDC patient-derived colon adenocarcinoma cell line growth inhibition [GQUAD]
Conditions: curve of first compound; second compound 0.0316 µM
pIC50: −log10 of the molar value.

compound | target or test system | pIC50
O=c1[nH]cc(F)c(=O)[nH]1 + CN(C)c1ccc(Nc2c3ccc(NC(=O)CCN4CCCC4)cc3nc3cc(NC(=O)CCN4CCCC4)ccc23)cc1 | 435261-313-R-J1-PDC complex spheroid viability | < 5.00
Cn1ncnc1[C@H]1c2n[nH]c(=O)c3cc(F)cc(c23)N[C@@H]1c1ccc(F)cc1 + CN(C)c1ccc(Nc2c3ccc(NC(=O)CCN4CCCC4)cc3nc3cc(NC(=O)CCN4CCCC4)ccc23)cc1 | 435261-313-R-J1-PDC complex spheroid viability | < 6.50
COc1ncnc(C2CC2)c1-c1ncc2cnn(Cc3ccc(-c4nc(C(F)(F)F)cn4C(C)C)cc3)c2n1 + Cc1cnc(CNC(=O)c2c(=O)c3ccc(N4CCCN(C)CC4)nc3n3c2sc2ccccc23)cn1 | 435261-313-R-J1-PDC complex spheroid viability | < 5.00
CC1COCCN1c1cc(C2(O)CC3CCC(C2)O3)c2cnn(-c3ccn[nH]3)c2n1 (stereo unspecified) + CN(C)c1ccc(Nc2c3ccc(NC(=O)CCN4CCCC4)cc3nc3cc(NC(=O)CCN4CCCC4)ccc23)cc1 | 435261-313-R-J1-PDC complex spheroid viability | 6.71
Nc1ccn(C2OC(CO)C(O)C2(F)F)c(=O)n1 (stereo unspecified) + Cc1[nH]c2ccc(F)cc2c1-c1nc2c3cccnc3c3ncccc3c2[nH]1 | 435261-313-R-J1-PDC complex spheroid viability | 6.79
C=CC(=O)N1CCN(c2nc(=O)n(-c3c(C)ccnc3C(C)C)c3nc(-c4c(O)cccc4F)c(F)cc23)C(C)C1 (stereo unspecified) + CN(C)c1ccc(Nc2c3ccc(NC(=O)CCN4CCCC4)cc3nc3cc(NC(=O)CCN4CCCC4)ccc23)cc1 | 435261-313-R-J1-PDC complex spheroid viability | < 5.00
COc1cc(C2c3cc4c(cc3C(OC3OC5COC(C)OC5C(O)C3O)C3COC(=O)C23)OCO4)cc(OC)c1O (stereo unspecified) + CN(C)c1ccc(Nc2c3ccc(NC(=O)CCN4CCCC4)cc3nc3cc(NC(=O)CCN4CCCC4)ccc23)cc1 | 435261-313-R-J1-PDC complex spheroid viability | < 5.00
COc1ccc([C@@H](O)c2cc(-c3ncnc4cc(N5CCOCC5)ccc34)c(F)cc2Cl)nn1 + CN(C)c1ccc(Nc2c3ccc(NC(=O)CCN4CCCC4)cc3nc3cc(NC(=O)CCN4CCCC4)ccc23)cc1 | 435261-313-R-J1-PDC complex spheroid viability | 5.38
Cn1ncnc1[C@H]1c2n[nH]c(=O)c3cc(F)cc(c23)N[C@@H]1c1ccc(F)cc1 + Cc1cnc(CNC(=O)c2c(=O)c3ccc(N4CCCN(C)CC4)nc3n3c2sc2ccccc23)cn1 | 435261-313-R-J1-PDC complex spheroid viability | < 6.50
CC1COCCN1c1cc(-c2ccnn2C)c2ccnc(-c3ccn[nH]3)c2n1 (stereo unspecified) + CN(C)c1ccc(Nc2c3ccc(NC(=O)CCN4CCCC4)cc3nc3cc(NC(=O)CCN4CCCC4)ccc23)cc1 | 435261-313-R-J1-PDC complex spheroid viability | 6.09
O=C(c1cc(Cc2n[nH]c(=O)c3ccccc23)ccc1F)N1CCN(C(=O)C2CC2)CC1 + Cc1cnc(CNC(=O)c2c(=O)c3ccc(N4CCCN(C)CC4)nc3n3c2sc2ccccc23)cn1 | 435261-313-R-J1-PDC complex spheroid viability | < 5.00

* * *

Each entry below lists one item and its recorded viability, T/C value.
Tested on: 435261-313-R-J1-PDC complex spheroid viability
Experiment: Anticancer human tumor 435261-313-R-J1-PDC cell line growth inhibition [GQUAD];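 also: spheroids exposed to the agents for seven days before readout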;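 as to viability, T/C: percent of vehicle control viability with DMSO wells as 100%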
Conditions: second compound 0.0316 µM; first compound 3.16 µM; stronger effect = lower value
experimental endpoint: viability, T/C (%)

molecule | experimental endpoint | measured
CCCS(=O)(=O)Nc1ccc(F)c(C(=O)c2c[nH]c3ncc(-c4ccc(Cl)cc4)cc23)c1F + CN(C)c1ccc(Nc2c3ccc(NC(=O)CCN4CCCC4)cc3nc3cc(NC(=O)CCN4CCCC4)ccc23)cc1 | viability, T/C | 85.6
CC1COCCN1c1cc(-c2ccnn2C)c2ccnc(-c3ccn[nH]3)c2n1 (configuration not stated) + Cc1cnc(CNC(=O)c2c(=O)c3ccc(N4CCCN(C)CC4)nc3n3c2sc2ccccc23)cn1 | viability, T/C | 36.2
CC(C)n1c(=O)n(C)c2cnc3cc(F)c(-c4ccc(OCCCN5CCCCC5)nc4)cc3c21 + CN(C)c1ccc(Nc2c3ccc(NC(=O)CCN4CCCC4)cc3nc3cc(NC(=O)CCN4CCCC4)ccc23)cc1 | viability, T/C | 89.2
Nc1ccn(C2OC(CO)C(O)C2(F)F)c(=O)n1 (configuration not stated) + Cc1cnc(CNC(=O)c2c(=O)c3ccc(N4CCCN(C)CC4)nc3n3c2sc2ccccc23)cn1 | viability, T/C | 73.4
O=C(NO)c1cnc(N2CCN(S(=O)(=O)c3ccc4ccccc4c3)CC2)nc1 + Cc1[nH]c2ccc(F)cc2c1-c1nc2c3cccnc3c3ncccc3c2[nH]1 | viability, T/C | 0.25
CC1COCCN1c1cc(C2(O)CC3CCC(C2)O3)c2cnn(-c3ccn[nH]3)c2n1 (configuration not stated) + Cc1cnc(CNC(=O)c2c(=O)c3ccc(N4CCCN(C)CC4)nc3n3c2sc2ccccc23)cn1 | viability, T/C | 23.5
CC1COCCN1c1cc(C2(S(C)(=N)=O)CC2)nc(-c2ccnc3[nH]ccc23)n1 (configuration not stated) + Cc1cnc(CNC(=O)c2c(=O)c3ccc(N4CCCN(C)CC4)nc3n3c2sc2ccccc23)cn1 | viability, T/C | 49.2
CC(C)(O)C1CCC(Nc2ccc3ncc(-c4cccc(C(F)(F)F)c4)n3n2)CC1 (configuration not stated) + Cc1[nH]c2ccc(F)cc2c1-c1nc2c3cccnc3c3ncccc3c2[nH]1 | viability, T/C | 6.6
C=CCn1c(=O)c2cnc(Nc3ccc(N4CCN(C)CC4)cc3)nc2n1-c1cccc(C(C)(C)O)n1 + Cc1cnc(CNC(=O)c2c(=O)c3ccc(N4CCCN(C)CC4)nc3n3c2sc2ccccc23)cn1 | viability, T/C | 52.7
C#Cc1c(F)ccc2cc(O)cc(-c3ncc4c(N5CC6CCC(C5)N6)nc(OCC56CCCN5CC(F)C6)nc4c3F)c12 (configuration not stated) + Cc1cnc(CNC(=O)c2c(=O)c3ccc(N4CCCN(C)CC4)nc3n3c2sc2ccccc23)cn1 | viability, T/C | 45.9
CC1COCCN1c1cc(C2(S(C)(=N)=O)CC2)nc(-c2ccnc3[nH]ccc23)n1 (configuration not stated) + CN(C)c1ccc(Nc2c3ccc(NC(=O)CCN4CCCC4)cc3nc3cc(NC(=O)CCN4CCCC4)ccc23)cc1 | viability, T/C | 69.2
Nc1ccn(C2OC(CO)C(O)C2(F)F)c(=O)n1 (configuration not stated) + CN(C)c1ccc(Nc2c3ccc(NC(=O)CCN4CCCC4)cc3nc3cc(NC(=O)CCN4CCCC4)ccc23)cc1 | viability, T/C | 77.2

* * *

Each entry below lists one item and its recorded IC50 value.
Test system: 435261-313-R-J1-PDC complex spheroid viability
Experiment: Anticancer human tumor 435261-313-R-J1-PDC cell line growth inhibition [GQUAD];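 also: spheroids exposed to the agents for seven days before readout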
Conditions: curve of first compound; second compound 0.0316 µM
experimental endpoint: IC50

compound | measured
C=CC(=O)N1CCN(c2nc(=O)n(-c3c(C)ccnc3C(C)C)c3nc(-c4c(O)cccc4F)c(F)cc23)C(C)C1 (stereo not drawn) + Cc1[nH]c2ccc(F)cc2c1-c1nc2c3cccnc3c3ncccc3c2[nH]1 | > 10 µM
COc1ncnc(C2CC2)c1-c1ncc2cnn(Cc3ccc(-c4nc(C(F)(F)F)cn4C(C)C)cc3)c2n1 + CN(C)c1ccc(Nc2c3ccc(NC(=O)CCN4CCCC4)cc3nc3cc(NC(=O)CCN4CCCC4)ccc23)cc1 | > 10 µM
Nc1ccn(C2OC(CO)C(O)C2(F)F)c(=O)n1 (stereo not drawn) + Cc1cnc(CNC(=O)c2c(=O)c3ccc(N4CCCN(C)CC4)nc3n3c2sc2ccccc23)cn1 | > 10 µM

* * *

Test system: 435261-313-R-J1-PDC complex spheroid viability
Assay: Anticancer human tumor 435261-313-R-J1-PDC cell line growth inhibition [GQUAD];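 also: spheroids exposed to the agents for seven days before readout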;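 as to viability, T/C: percent of vehicle control viability with DMSO wells as 100%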
Settings: second compound 0.0316 µM; first compound 0.1 µM; stronger effect = lower value
experimental endpoint: viability, T/C (%)

compound | measured
C#Cc1c(F)ccc2cc(O)cc(-c3ncc4c(N5CC6CCC(C5)N6)nc(OCC56CCCN5CC(F)C6)nc4c3F)c12 (stereo not given) + Cc1cnc(CNC(=O)c2c(=O)c3ccc(N4CCCN(C)CC4)nc3n3c2sc2ccccc23)cn1 | 61
O=C(NO)c1cnc(N2CCN(S(=O)(=O)c3ccc4ccccc4c3)CC2)nc1 + Cc1[nH]c2ccc(F)cc2c1-c1nc2c3cccnc3c3ncccc3c2[nH]1 | 66.6
O=C(c1cc(Cc2n[nH]c(=O)c3ccccc23)ccc1F)N1CCN(C(=O)C2CC2)CC1 + Cc1cnc(CNC(=O)c2c(=O)c3ccc(N4CCCN(C)CC4)nc3n3c2sc2ccccc23)cn1 | 60.9
CC1COCCN1c1cc(C2(O)CC3CCC(C2)O3)c2cnn(-c3ccn[nH]3)c2n1 (stereo not given) + CN(C)c1ccc(Nc2c3ccc(NC(=O)CCN4CCCC4)cc3nc3cc(NC(=O)CCN4CCCC4)ccc23)cc1 | 58.1
C#Cc1c(F)ccc2cc(O)cc(-c3ncc4c(N5CC6CCC(C5)N6)nc(OCC56CCCN5CC(F)C6)nc4c3F)c12 (stereo not given) + CN(C)c1ccc(Nc2c3ccc(NC(=O)CCN4CCCC4)cc3nc3cc(NC(=O)CCN4CCCC4)ccc23)cc1 | 118

Values compiled from PubChem BioAssay AID2060494.
